Test system: U2OS
Assay Summary: Multiplex assay against U2OS
Format: toxicity, cell-based
Test Parameters: human, 12 h, 10 µM, compound concentration 10 uM, replicate 1
Measurement Kind: Population Apoptotic (%)
I'd appreciate it if you wrote the number followed by its unit.

Use the examples below as a reference point.
CCOc1cc(N2CCC(O)CC2)ccc1Nc1ncc2c(n1)N(C1CCCC1)CCC(=O)N2C	27%
c1ccc2oc(-c3csc(C4CCN(Cc5nc6ncccc6[nH]5)CC4)n3)cc2c1	42%
CNc1oc(-c2cccc3ccccc23)nc1C#N	86%
CCCn1c(=O)c2[nH]c(C34CC5CC(CC3C5)C4)nc2n(CCC)c1=O [ROLOFYLLINE]	58%

Enter measured Population Apoptotic (%), system U2OS, for the compound shown: CCn1c(-c2nonc2N)nc2cnc(Oc3cccc(NC(=O)c4ccc(OCCN5CCOCC5)cc4)c3)cc21 [GSK-269962A]
50%

Enter measured Population Apoptotic (%), system U2OS, for the compound shown: N#Cc1cnc(Nc2cc(NC[C@H]3CNCCO3)c(C(F)(F)F)cn2)cn1 [SRA-737]
50%

# return Population Apoptotic (%) of `Cl.Cl.NC1(c2ccc(-c3nc4ccn5c(=O)[nH]nc5c4cc3-c3ccccc3)cc2)CCC1` (system: U2OS)
22%

Look up and report measured Population Apoptotic (%) (U2OS) for the following compound: `COc1cc2c(NC3CCN(C(C)C)CC3)nc(N3CCC(F)(F)CC3)nc2cc1OCCCN1CCCC1`
68%

Please report the measured Population Apoptotic (%) for `Nc1nc2c(c(N3CCNCC3)n1)CCC1=C2[C@@H]2CCCC[C@@H]2O1` tested on U2OS.
26%

# lookup: U2OS Population Apoptotic (%), key = `CC(=O)c1cc(-c2cc(C(=O)NC3CC3)ccc2C)c2ncccn12`
43%

Answer with Population Apoptotic (%) of Cc1nc(Cc2cccc(C(F)(F)F)c2)sc1-c1ccc(C(N)=O)nc1 [TP-024n] measured for U2OS.
45%

Please look at CN(C)C/C=C/C(=O)Nc1cc2c(Nc3ccc(F)c(Cl)c3)ncnc2cc1O[C@H]1CCOC1.O=C(O)/C=C\C(=O)O.O=C(O)/C=C\C(=O)O [AFATINIB DIMALEATE] and tell me its recorded Population Apoptotic (%) on U2OS.
62%

Return reported Population Apoptotic (%) for target or system U2OS, item `CC(C)N1CCC(C)(C)c2cc(C#Cc3ccc(C(=O)O)cc3)ccc21` .
60%

GET Population Apoptotic (%) | system: U2OS | item: `Nc1ccc(C(=O)Nc2cccc(-c3nc(N4CCOCC4)c4oc5ncccc5c4n3)c2)cn1`
56%

Answer with Population Apoptotic (%) of CNC(=O)c1cc(Oc2ccc(NC(=O)Nc3cc(C(C)(C)C)nn3-c3ccc4ncccc4c3)c(F)c2)ccn1 [REBASTINIB] measured for U2OS.
50%

Check U2OS data and give Population Apoptotic (%) for CN(C)CCOc1ccc(-c2nc(-c3ccncc3)c(-c3ccc4c(c3)CC/C4=N\O)[nH]2)cc1 [SB590885] .
42%

Would you please give the reported Population Apoptotic (%) of `Cc1cn(-c2cc(NC(=O)c3ccc4c(c3)CN(c3cncnc3)C[C@@H]4C)cc(C(F)(F)F)c2)cn1` with U2OS?
33%

Supply Population Apoptotic (%) measured with U2OS for CCOc1cc2ncc(C#N)c(Nc3ccc(OCc4cccc(F)c4)c(Cl)c3)c2cc1NC(=O)/C=C/CN(C)C [HKI-357] .
56%

State recorded Population Apoptotic (%) with U2OS, entry `Cl.Cl.Nc1ncnc2c1c(-c1cccc(OCc3ccccc3)c1)cn2[C@H]1C[C@@H](CN2CCC2)C1` , no comment.
81%

Report value: Population Apoptotic (%), system: U2OS, compound: `COc1ccc(NS(=O)(=O)c2sc3ccc(Cl)cc3c2C)cc1N1CCNCC1.Cl`
43%

Determine reported Population Apoptotic (%) for `COc1cc2c(Nc3ccc(NC(=O)c4ccccc4)cc3)ncnc2cc1OCCCN1CCOCC1` ; test system: U2OS.
44%

With U2OS as the test system, provide measured Population Apoptotic (%) for this compound: CC(C)(C)c1cnc(CSc2cnc(NC(=O)C3CCNCC3)s2)o1 [BMS-387032]
40%

Send back U2OS Population Apoptotic (%) of CCC(=O)O[C@]1(C(=O)SCF)[C@H](C)C[C@H]2[C@@H]3C[C@H](F)C4=CC(=O)C=C[C@]4(C)[C@@]3(F)[C@@H](O)C[C@@]21C [FLUTICASONE PROPIONATE] only.
53%

// fetch Population Apoptotic (%) for `Cc1cc2c(cc1N1C(=O)c3cccc4c(CCCO)ccc(c34)C1=O)n(C)c(=O)n2C` ; system: U2OS
54%
